Measured On: human glucagon receptor (human) (UniProt P47871)
Sequence (P47871 26-477): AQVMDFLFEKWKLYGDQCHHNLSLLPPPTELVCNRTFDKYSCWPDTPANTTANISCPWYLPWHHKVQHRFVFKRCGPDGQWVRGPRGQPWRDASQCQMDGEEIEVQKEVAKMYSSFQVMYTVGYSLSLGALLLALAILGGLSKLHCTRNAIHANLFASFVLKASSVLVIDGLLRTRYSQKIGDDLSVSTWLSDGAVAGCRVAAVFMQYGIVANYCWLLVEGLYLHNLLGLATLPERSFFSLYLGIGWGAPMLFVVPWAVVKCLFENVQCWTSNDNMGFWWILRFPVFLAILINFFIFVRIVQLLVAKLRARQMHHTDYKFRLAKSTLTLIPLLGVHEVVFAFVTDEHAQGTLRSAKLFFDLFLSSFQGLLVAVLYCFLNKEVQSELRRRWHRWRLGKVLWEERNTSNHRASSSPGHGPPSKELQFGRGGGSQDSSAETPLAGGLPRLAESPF
Measurement Notes: cell-based or functional assay
Starred links: 1 amine or outer side, 2 acyl side, 3 side chain; linkers in the order of their positions; H or OH if unused. Non-standard residues stand in square brackets, D forms with d. Groups on a side chain read outwards from the residue. No end group written: not given here. *: point of attachment. C20 diacid = O=C(O)CCCCCCCCCCCCCCCCCCC(=O)*; γGlu = O=C(O)[C@H](CCC(=O)[*:2])N[*:1]; αMeL = CC(C)C[C@](C)(N)C(=O)O; AEEA = NCCOCCOCC(=O)O; Aib = CC(C)(N)C(=O)O
Outcome label depends on Relative cAMP EC50 relative to 4 nM: at/above gives T, below gives F.

Some solved entries appear below for comparison.
YXQGTXTSDXXILLDXKAQXXFIEXLQEGGPSSGEPPPEGAE (synthetic construct; SITE 2: note = 2-Aminoisobutyric Acid; SITE 6: note = alpha-methyl-2-fluoro-L-phenylalanine; SITE 10: note = 3-(4-Pyridyl)-L-alanine; SITE 11: note = alpha-methyl-L-serine; SITE 16: note = L-ornithine; SITE 17: note = Lysine is chemically modified through conjugation of the epsi) [Example 546]: F
YXQGTFTSDFSQXLDKKAQXAFIEYLLEXGESSGEPPPSGE (synthetic construct; SITE 2: note = 2-Aminoisobutyric Acid; SITE 13: note = alpha-methyl-leucine; SITE 17: note = Lysine is chemically modified through conjugation of the epsilon-amino group of the Lysine side chain with (2-[2-(2-Amino-ethoxy)-ethoxy]-acetyl)-(gamma-Glu)-CO-(CH2) 16-CO2H; SITE 20: n) [Example 790]: F
YXQGTXTSDYSIXLDKKAQXAFIEYLEEGGPSSGAPPPE (synthetic construct; SITE 2: note = 2-Aminoisobutyric Acid; SITE 6: note = alpha-methyl-L-phenylalanine; SITE 13: note = alpha-methyl-leucine; SITE 17: note = Lysine is chemically modified through conjugation of the epsilon-amino group of the Lysine side chain with (2-[2-(2-Amino-ethoxy)-ethoxy]-ace)) [Example 396]: T
YXQGTFTSDFSKXLDKKAQXAFIQWLLEGGPSSGAPPPSEG (Lys acylated; non-natural residues; C-amide; synthetic construct; SITE 2: note = 2-Aminoisobutyric Acid; SITE 13: note = alpha-methyl-leucine; SITE 17: note = Lysine is chemically modified through conjugation of the epsilon-amino group of the Lysine side chain with (2-[2-(2-Amino-ethoxy)-ethoxy]-acetyl)-(gamma-Glu)-CO-(CH2) 18-CO2H; SITE 20: n) [Example 39]: T
YXQGTFTSDXSXXLDXKAQXAFIEXLLEGGPSSGAPPPSGSEE (Aib, 4Pal, Orn, αMeL, αMeY; lipidated Lys; C-terminal amide; synthetic construct; SITE 2: note = 2-Aminoisobutyric Acid; SITE 10: note = 3-(4-Pyridyl)-L-alanine; SITE 12: note = L-ornithine; SITE 13: note = alpha-methyl-leucine; SITE 16: note = L-ornithine; SITE 17: note = Lysine is chemically modified through conjugation of the epsilon-amino group of the Lys) [Example 1065]: T

Pending binder:
// inclusive: Relative cAMP EC50 at least 4 nM? input: Y[Aib]QGTFTSDYSI[αMeL]LDKIAAK([AEEA-AEEA-γGlu-C20 diacid])QFVEYLIAGGPSSGEPPPSEG-NH2 [Example 312]
T
